Reference source for all entries: patent US20240116985A1

In this section we review reported IC50 values for a set of binders.
subject-of-test: Bcat-Halo (UniProt P35222)
Sequence (P35222 whole entry): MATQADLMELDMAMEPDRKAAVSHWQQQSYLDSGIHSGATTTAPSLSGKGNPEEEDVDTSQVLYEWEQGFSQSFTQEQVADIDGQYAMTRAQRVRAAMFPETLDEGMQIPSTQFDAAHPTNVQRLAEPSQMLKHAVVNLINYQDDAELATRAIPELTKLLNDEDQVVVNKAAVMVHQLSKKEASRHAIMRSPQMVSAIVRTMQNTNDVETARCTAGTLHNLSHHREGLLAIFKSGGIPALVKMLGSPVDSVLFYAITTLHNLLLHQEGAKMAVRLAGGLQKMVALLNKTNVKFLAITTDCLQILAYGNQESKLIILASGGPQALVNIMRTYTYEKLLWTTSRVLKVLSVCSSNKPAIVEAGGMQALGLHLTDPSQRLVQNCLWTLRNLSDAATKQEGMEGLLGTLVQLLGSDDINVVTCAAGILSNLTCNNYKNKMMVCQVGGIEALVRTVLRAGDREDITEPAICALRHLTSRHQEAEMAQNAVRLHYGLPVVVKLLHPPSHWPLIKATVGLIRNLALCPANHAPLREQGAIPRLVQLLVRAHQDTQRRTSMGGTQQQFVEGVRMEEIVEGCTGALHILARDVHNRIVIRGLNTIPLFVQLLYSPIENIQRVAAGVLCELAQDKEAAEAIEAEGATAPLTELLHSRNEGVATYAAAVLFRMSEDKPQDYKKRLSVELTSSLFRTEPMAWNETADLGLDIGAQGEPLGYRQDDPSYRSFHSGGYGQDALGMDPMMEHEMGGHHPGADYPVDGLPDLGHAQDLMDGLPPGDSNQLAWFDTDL
assay-procedure: NanoBRET Abs IC50, Bcat-Halo/TCF4-Luc in HEK293 cells
Starred links: 1 amine or outer side, 2 acyl side, 3 side chain; linkers in the order of their positions; H or OH if unused. Positions of bridges follow the written chain, without caps; N, C: chain ends. Non-standard residues stand in square brackets, D forms with d. Primed or numbered codes have the meaning given here. PyrS2″ = (S)-3-amino-1-((pent-4-en-1-yloxy)carbonyl)pyrrolidine-3-carboxylic acid (stapling residue), C=CCCCOC(=O)N1CC[C@@](N[*:1])(C(=O)[*:2])C1; B5(18) = 2,2-bis(4-pentenyl)glycine (2-amino-2-(pent-4-en-1-yl)hept-6-enoic acid), stitching residue, C=CCCCC(CCCC=C)(N[*:1])C(=O)[*:2]; TfeGA = (S)-2-amino-3-((carboxymethyl)(2,2,2-trifluoroethyl)amino)propanoic acid, O=C([C@H](CN(CC(=O)[*:3])CC(F)(F)F)N[*:1])[*:2]; Phe(2-Cl) = N[C@@H](Cc1ccccc1Cl)C(=O)O; Bta = N[C@@H](Cc1csc2ccccc12)C(=O)O; αAllylPro = C=CC[C@@]1(C(=O)O)CCCN1; tBuAla = CC(C)(C)C[C@H](N)C(=O)O
Please make sure the unit comes right after the number.

Ac-[αAllylPro]D[tBuAla][B5(18)]D[TfeGA]KAFN[PyrS2″][Phe(2-Cl)][Bta]Q-NH2 (staple 1-4, 4-11) [I-1011] ... 20.8 µM

Per the records, this binder ( Ac-[αAllylPro]D[tBuAla][B5(18)]D[TfeGA]FAFN[PyrS2″][Phe(2-Cl)][Bta]Q-NH2 (staple 1-4, 4-11) [I-1008] ) has IC50 equal to 14 µM

# IC50 of Ac-[αAllylPro]D[tBuAla][B5(18)]DDAAFS[PyrS2″][Phe(2-Cl)][Bta]Q-NH2 (staple 1-4, 4-11) [I-1017] = 8.9 µM
